# experiment: Acute toxicity (LD50)
# experimental-conditions: in vivo, iv; rat
measurement-name: LD50

compound="Cc1c(C)c2c(c(C)c1OP(=O)(O)OC1=C(O)[C@@H]([C@@H](O)CO)OC1=O)CCC(C)(CCCC(C)CCCC(C)CCCC(C)C)O2 (mixture of isomers) [EPC-K]" measurement_name=LD50 observed="> 100 mg/kg"
